Taken from patent US8207347B2.

TARGET_ENTITY: human NK3 receptor (Homo sapiens, UniProt P29371)
Construct: expressed in transfected cells
Sequence (P29371 whole entry): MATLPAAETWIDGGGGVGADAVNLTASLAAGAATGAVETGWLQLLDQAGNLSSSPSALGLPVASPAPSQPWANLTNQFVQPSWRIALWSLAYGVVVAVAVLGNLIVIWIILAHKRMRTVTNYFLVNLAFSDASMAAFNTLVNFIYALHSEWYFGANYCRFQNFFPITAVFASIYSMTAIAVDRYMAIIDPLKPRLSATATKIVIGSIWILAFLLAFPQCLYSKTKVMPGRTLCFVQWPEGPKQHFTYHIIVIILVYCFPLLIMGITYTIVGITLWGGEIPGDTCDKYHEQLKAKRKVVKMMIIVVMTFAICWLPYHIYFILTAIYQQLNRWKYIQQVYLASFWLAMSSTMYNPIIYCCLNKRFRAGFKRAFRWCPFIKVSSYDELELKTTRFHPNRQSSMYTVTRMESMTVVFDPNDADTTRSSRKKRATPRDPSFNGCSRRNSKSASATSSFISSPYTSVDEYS
TEST_NAME: NK3 receptor binding assay (filter-based competition binding, 3H-AE93103)
MEASUREMENT_CONTEXT: BHK cell membranes expressing human NK3 receptor; Ki from IC50 by Cheng Prusoff equation; read-out: Affinity (Ki/nM)
Record form. Attribute: log10(Ki). Fill in for each entry.
Hello, just confirming the data are log10 of Ki with units of nM.

For each listed entry, give its log10(Ki).
1. CCCn1c(C)c(C(=O)N[C@H](c2cccc(F)c2)C2CCC2)c(C)c(Br)c1=O
2. CCCn1c(C)c(C(=O)N[C@H](c2cc(F)cc(F)c2)C2CCC2)c(C)c(Br)c1=O
3. CCCNn1c(C)c(C(=O)N[C@H](c2ccccc2)C2CCC2)c(C)c(Br)c1=O
4. Cc1c(C(=O)N[C@H](c2cccc(F)c2)C2CCC2)c(C(F)(F)F)c(Br)c(=O)n1-c1ccccc1

1.48
1.69
1.20
0.85

For each listed entry, give its log10(Ki).
1. CCCn1c(C)c(C(=O)N[C@H](c2ccccc2Cl)C2CC2)c(C)c(Br)c1=O
2. C#Cc1c(C)c(C(=O)N[C@H](c2cccc(F)c2)C2CCC2)c(C)n(-c2ccccc2)c1=O
3. CCc1c(C(=O)N[C@H](c2cccc(F)c2)C2CCC2)c(C)n(-c2ccccc2)c(=O)c1Br

[1.83, 2.38, 1.70]

For each listed entry, give its log10(Ki).
1. Cc1c(C(=O)N[C@H](c2cccc(F)c2)C2CCC2)c(C(F)(F)F)c(Cl)c(=O)n1-c1ccccc1
2. CCNn1c(C)c(C(=O)N[C@H](c2cccc(F)c2)C2CCC2)c(C)c(Br)c1=O
3. CCCc1c(C(=O)N[C@H](c2cccc(F)c2)C2CCC2)c(C)n(-c2ccccc2)c(=O)c1Br
4. CCCNn1c(C)c(C(=O)N[C@H](c2cccc(F)c2)C2CCC2)c(C)c(C#N)c1=O

1: 1.38; 2: 1.38; 3: 1.95; 4: 1.34

For each listed entry, give its log10(Ki).
1. Cc1c(C(=O)N[C@H](c2cccc(F)c2)C2CCC2)c(C)n(Cc2ncco2)c(=O)c1C#N
2. Cc1c(C(=O)N[C@H](c2cccc(F)c2)C2CCC2)c(C)n(-c2ccccc2)c(=O)c1Br
3. CCCn1c(C)c(C(=O)N[C@H](c2ccccc2)C2CCC2)c(C)c(Br)c1=O

1: 1.53; 2: 1.72; 3: 1.56
